B1: ZMYND11 (parent)
chain: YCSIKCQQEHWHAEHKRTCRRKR

Variants of: B1
experiment: protein stability index of a GFP-peptide fusion (GPS, HEK-293T) (PSI 1-6); higher = more stable;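 further: lentivirally expressed fusions sorted by FACS into six bins by GFP to DsRed ratio, PSI derived from sequencing read proportions per bin multiplied by bin number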
conditionParameters: c terminus: native
Catalogue of protein stability index values
measuredMetric: protein stability index

[
  {
    "residueSequence": "YMSIKCQQEHWHAEHKRTCRRKR [C2M]",
    "measuredMetric": "protein stability index",
    "experimentalResult": 3.01
  },
  {
    "residueSequence": "ACSIKCQQEHWHAEHKRTCRRKR [Y1A]",
    "measuredMetric": "protein stability index",
    "experimentalResult": 3.95
  },
  {
    "residueSequence": "YCSIICQQEHWHAEHKRTCRRKR [K5I]",
    "measuredMetric": "protein stability index",
    "experimentalResult": 1.56
  },
  {
    "residueSequence": "YCSIKCQQEHWHAEHKRTCRTKR [R21T]",
    "measuredMetric": "protein stability index",
    "experimentalResult": 2.41
  },
  {
    "residueSequence": "YCSIKCQQEHWHAPHKRTCRRKR [E14P]",
    "measuredMetric": "protein stability index",
    "experimentalResult": 1.84
  }
]
